# Test system: UACC-62 melanoma
# EXPERIMENT SUMMARY: NCI-60 one-dose screen, 48 h (100 = growth as untreated, 0 = no growth, -100 = all killed)
# TEST SETTINGS: 10 µM unless noted
The panel holds about 83,000 compounds, 20% with a hit somewhere; the sample as a whole holds those more often.
Classes (growth): 0 (below 20%), 1 (20% to below 70%), 2 (70% or more)

C=C1CC[C@@H]2[C@](C)(COC(C)=O)[C@H](OC(C)=O)CC[C@@]2(C)[C@@H]1CC(Nc1ccc(S(=O)(=O)Nc2nccs2)cc1)C1=CCOC1=O (stereo partly specified) : 1
C#Cc1cc(C(=O)Nc2ccc(CN3CCN(C)CC3)c(C(F)(F)F)c2)ccc1C : 1
N#CC1=C(N)Oc2c(sc3c(Br)cccc23)C1c1ccccn1 (stereo unspecified) : 0

Query :: Lab note: which band did `CCNC(=S)n1nc(SC)c(C(=O)OCC)c1N` land in?
Result :: 2

Query :: Lab note: which band did COC1/C=C/OC2(C)Oc3c(C)c(O)c4c(O)c(c(C=NOC(c5ccccc5)c5ccccc5)c(O)c4c3C2=O)NC(=O)/C(C)=C/C=C/C(C)C(O)C(C)C(O)C(C)C(OC(C)=O)C1C (stereo unspecified) land in?
Result :: 0

Query :: Lab note: which band did `CC(=O)c1nn(-c2ccccc2)/c(=N/N=Cc2cn(-c3ccccc3)nc2-c2cc3ccccc3oc2=O)s1` land in?
Result :: 2

Query :: Lab note: which band did `CC/C(=C(/c1ccc(O)cc1)c1ccc(OCCN2CCCCCC2)cc1)c1ccc(Cl)cc1` land in?
Result :: 2

Query :: Lab note: which band did `CN1CCN(C(=O)OCc2nc3c(N4CCOCC4)nc(Cl)nc3n2C)CC1` land in?
Result :: 0

Query :: Lab note: which band did `COc1cc2ncnc(Nc3ccc(F)c(Cl)c3)c2cc1OCC(=O)N1CCCCC1` land in?
Result :: 2

Query :: Lab note: which band did CCN1C(=O)/C(=c2\sc3n(c2=O)C2C(NN=3)N(CC)C(=O)N2CC)c2ccccc21 (stereo unspecified) land in?
Result :: 1

Query :: Lab note: which band did `Cn1cc(-c2csc(-c3c[nH]c4ccc(F)cc34)n2)c2cnccc21` land in?
Result :: 0

Query :: Lab note: which band did `CN1CCN(Cc2ccc(NC(=O)c3cccc(C#Cc4c(N)ncc5ccc(F)cc45)c3)cc2C(F)(F)F)CC1` land in?
Result :: 0

Query :: Lab note: which band did `Cc1nc2sc(C(=O)Nc3cccc4ccccc34)c(N)c2cc1C(=O)/C=C/c1ccccc1` land in?
Result :: 0

Query :: Lab note: which band did `COc1ccc(CCNC(=O)COc2cc3c(Nc4ccc(F)c(Cl)c4)ncnc3cc2OC)cc1OC` land in?
Result :: 2

Query :: Lab note: which band did `CCOc1ccccc1NC(=O)c1cc2ccccc2cc1O` land in?
Result :: 1

Query :: Lab note: which band did `Cc1c(CC(=O)OCCO)cc(-c2ccc(Cl)cc2)n1-c1ccccc1` land in?
Result :: 2

Query :: Lab note: which band did `OCCN1CCN(c2cc(-c3cccc(OC(F)(F)F)c3)nc3ccc(N4CCCC4)cc23)CC1` land in?
Result :: 1

Query :: Lab note: which band did `COc1ccc(-c2cc(-c3cccc(Cl)c3)c(C#N)c(=O)[nH]2)c(OC)c1` land in?
Result :: 2

Query :: Lab note: which band did `O=C1c2cc3c(cc2-c2c1c1ccc(Cl)cc1c(=O)n2CCCn1ccnc1)OCO3` land in?
Result :: 0

Cited source for all entries: PubChem BioAssay (NCI)
